Target: T1, human CD22, full length, on CHO-K1-human CD22 2C4 cells (human, UniProt P20273 20-847)
T1 construct: Full-length human CD22 (NCBI NP_001762.2) stably transfected into CHO-K1
T1 sequence: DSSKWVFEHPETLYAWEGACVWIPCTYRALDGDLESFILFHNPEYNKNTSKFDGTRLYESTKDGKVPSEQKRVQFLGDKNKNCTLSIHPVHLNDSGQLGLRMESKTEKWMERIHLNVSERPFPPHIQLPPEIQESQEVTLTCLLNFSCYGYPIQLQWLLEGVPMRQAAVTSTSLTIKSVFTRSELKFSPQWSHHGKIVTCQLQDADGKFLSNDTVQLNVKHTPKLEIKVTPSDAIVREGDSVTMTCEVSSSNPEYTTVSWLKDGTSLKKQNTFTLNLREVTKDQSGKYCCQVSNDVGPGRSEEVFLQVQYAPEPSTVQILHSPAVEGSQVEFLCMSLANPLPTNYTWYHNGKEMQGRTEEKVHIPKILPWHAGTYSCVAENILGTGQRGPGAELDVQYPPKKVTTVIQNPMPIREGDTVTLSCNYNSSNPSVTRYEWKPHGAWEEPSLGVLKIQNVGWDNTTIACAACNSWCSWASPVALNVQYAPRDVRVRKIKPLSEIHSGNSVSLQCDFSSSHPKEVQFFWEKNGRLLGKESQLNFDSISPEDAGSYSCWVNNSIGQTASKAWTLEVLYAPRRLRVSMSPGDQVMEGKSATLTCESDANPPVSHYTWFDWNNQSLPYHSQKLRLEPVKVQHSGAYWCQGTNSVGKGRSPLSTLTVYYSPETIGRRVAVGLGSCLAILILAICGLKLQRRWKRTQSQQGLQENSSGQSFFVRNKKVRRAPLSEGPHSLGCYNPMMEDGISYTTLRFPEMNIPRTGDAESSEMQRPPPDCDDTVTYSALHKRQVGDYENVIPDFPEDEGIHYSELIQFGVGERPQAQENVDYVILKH
Test: FACS, CHO-K1-human CD22 2C4 cells
Entries annotated with measured Maximum mean fluorescence intensity
Please state the figure in MFI; there is no need to write the unit.

INSERT INTO assay_data (binder, unit_descriptor, reported_measurement) VALUES
  ('F1.172.13 human-murine chimeric antibody (antibody, human IgG1, kappa, V domains shown, Chimeric, human IgG1 / kappa) VH: QVTLKESGPGILQSSQTLSLTCSFSGFSLSTSGMGVSWIRQPSGKGLEWLAHIYWDDDKRYNPSLKSRLTISKDTSRNQVFLKITSVDTADTATYYCARAPPPNWDEYYFDYWGQGTTLTVSS VL: DIQMTQSPASLSASVGETVTITCRASGNIHNSLAWYQQKQGKSPQLLVHNAKTLADGVPSRFSGSGSGTQYSLKINSLQPEDFGSYYCQHFWSTPPFGGGTKLEIKR', 'MFI', 33800),
  ('F1.60.9 human-murine chimeric antibody (antibody, human IgG1, kappa, V domains shown, Chimeric, human IgG1 / kappa) VH: QVQLKESGPGLVAPSQSLSITCTVSGLSLNNYGVSWVRQPPGKGLEWLGVIWGDGSTNYHSALISRLSISKDNSKSQVFLKLNSLHTDDTATYYCAINWGDYWGQGTTLIVSS VL: DIKMTQSPSSMNASLGERVTITCKASQDINSYLSWFQQKPGKSPKILIYRANRLIDGVPSRFSGSGSGQDYSLTISSLEYEDMGIYYCLQYGVFPLTFGAGTKLELKR', 'MFI', 30100);

Now look at this one.
Asked: May I ask what Maximum mean fluorescence intensity has been recorded for HA22-hIgG1 (antibody, V domains shown) VH: EVQLVESGGGLVKPGGSLKLSCAASGFAFSIYDMSWVRQTPEKCLEWVAYISSGGGTTYYPDTVKGRFTISRDNAKNTLYLQMSSLKSEDTAMYYCARHSGYGTHWGVLFAYWGQGTLVTVSA VL: DIQMTQTTSSLSASLGDRVTISCRASQDISNYLNWYQQKPDGTVKLLIYYTSILHSGVPSRFSGSGSGTDYSLTISNLEQEDFATYFCQQGNTLPWTFGCGTKLEIKR ?
Given back: 32700
